Kindly supply the reported pIC50 values for the records listed here.
# System: SKBR3 (PI3Kα-Wild Type) cell line
# Assay Procedure: HTRF phospho-AKT(S473) cell assay in SKBR3 cells
# Format: cell-based, human
# Conditions: Homo sapiens, SK-BR-3; SKBR3 (PI3Kα-Wild Type) cells, HTRF phospho-AKT(S473), 2 hours compound incubation, PDGF-BB stimulated
pIC50: −log10 of the molar value.

Some solved entries appear below for comparison.
>>> endpoint_result("Cc1cc([C@@H](C)Nc2ccc(Cl)nc2C(=O)NS(C)(=O)=O)c2nc(N3CCC[C@@H](Oc4ccc(C)nc4)C3)n(C)c(=O)c2c1")
"≤ 5.30"
>>> endpoint_result("Cc1cc([C@@H](C)Nc2ccc(Cl)nc2C(=O)NS(C)(=O)=O)c2nc(N3Cc4cc(F)cnc4C3)n(C)c(=O)c2c1")
"5.30 to 6.00"
>>> endpoint_result("Cc1cc([C@@H](C)Nc2ccc(C)[nH]c2=O)c2nc(N3Cc4ccc(F)cc4C3)n(C)c(=O)c2c1")
"≤ 5.30"
>>> endpoint_result("Cc1cc([C@@H](C)Nc2ccc(Cl)nc2C(=O)NS(C)(=O)=O)c2nc(N3CCC(c4nn(C)cc4N(C)C)CC3)n(C)c(=O)c2c1")
"≤ 5.30"
>>> endpoint_result("Cc1cc([C@@H](C)Nc2ccc(Cl)nc2C(=O)NS(C)(=O)=O)c2nc(N3CCc4nn(CC5COC5)cc4C3)n(C)c(=O)c2c1")
"≤ 5.30"

Attention now turns to another entry.
Looking for the measured pIC50 of Cc1cc([C@@H](C)Nc2ccc(Cl)nc2C(=O)NS(C)(=O)=O)c2nc(N3CCC(c4c(C)nn(C)c4C)CC3)n(C)c(=O)c2c1 , can you help?
5.30 to 6.00

###

# Tested on: SKBR3 (PI3Kα-Wild Type) cell line
# Assay Procedure: HTRF phospho-AKT(S473) cell assay in SKBR3 cells
# Assay type: cell-based, human
# Conditions: Homo sapiens, SK-BR-3; HTRF phospho-AKT(S473), SKBR3 (PI3Kα-Wild Type) cells, 2 hours compound incubation, PDGF-BB stimulated
pIC50: −log10 of the molar value.
For each entry below, report its pIC50 value.

Study these solved cases before continuing.
>>> endpoint_result("Cc1cnc(N2CCN(c3nc4c([C@@H](C)Nc5ccc(Cl)nc5C(=O)NS(C)(=O)=O)cc(C)cc4c(=O)n3C)CC2)nc1")
"≤ 5.30"
>>> endpoint_result("CC(=O)N1CCC(c2ccc(-c3nc4c([C@@H](C)Nc5ccc(Cl)nc5C(=O)NS(C)(=O)=O)cc(C)cc4c(=O)n3C)cc2)CC1")
"5.30 to 6.00"
>>> endpoint_result("[2H]C([2H])([2H])n1cc(F)c(C2CCN(c3nc4c([C@@H](C)Nc5ccc(Cl)nc5C(=O)NS(C)(=O)=O)cc(C)cc4c(=O)n3C)CC2)n1")
"≤ 5.30"
>>> endpoint_result("Cc1cc([C@@H](C)Nc2ccc(Cl)nc2C(=O)NS(C)(=O)=O)c2nc(N3CCC(c4ccn(C(F)(F)F)n4)CC3)n(C)c(=O)c2c1")
"≤ 5.30"
>>> endpoint_result("Cc1cc([C@@H](C)Nc2ccc(Cl)nc2C(=O)NS(C)(=O)=O)c2nc(-c3ccc4c(cnn4CC(F)(F)F)c3)n(C)c(=O)c2c1")
"5.30 to 6.00"

Would you mind telling me what pIC50 value was observed for Cc1cc([C@@H](C)Nc2ccc(Cl)nc2C(=O)NS(C)(=O)=O)c2nc(N3CCC(c4ccnn4CC(F)(F)F)CC3)n(C)c(=O)c2c1 ?
5.30 to 6.00

###

# System: SKBR3 (PI3Kα-Wild Type) cell line
# Assay Procedure: HTRF phospho-AKT(S473) cell assay in SKBR3 cells
# Type: cell-based, human
# Conditions: Homo sapiens, SK-BR-3; SKBR3 (PI3Kα-Wild Type) cells, HTRF phospho-AKT(S473), 2 hours compound incubation, PDGF-BB stimulated
Endpoint: IC50

>>> endpoint_result("Cc1cc([C@@H](C)Nc2ccc(Cl)nc2C(=O)NS(C)(=O)=O)c2nc(N3C[C@@H]4[C@H](C3)[C@H]4c3ccn(C)n3)n(C3CC3)c(=O)c2c1")
"1 to 5 µM"
>>> endpoint_result("Cc1cc([C@@H](C)Nc2ccc(Cl)nc2C(=O)NS(C)(=O)=O)c2nc(N3C[C@H]4C[C@@H]3CN4c3ccn(C)n3)n(C)c(=O)c2c1")
"1 to 5 µM"

// IC50 lookup, key: Cc1cnc(C2CCN(c3nc4c([C@@H](C)Nc5ccc(Cl)nc5C(=O)NS(C)(=O)=O)cc(C)cc4c(=O)n3C)CC2)nc1
1 to 5 µM

###

# System: SKBR3 (PI3Kα-Wild Type) cell line
# Assay Procedure: HTRF phospho-AKT(S473) cell assay in SKBR3 cells
# Format: cell-based, human
# Conditions: Homo sapiens, SK-BR-3; SKBR3 (PI3Kα-Wild Type) cells, HTRF phospho-AKT(S473), 2 hours compound incubation, PDGF-BB stimulated
pIC50: −log10 of the molar value.
Endpoint: pIC50

For the 7 molecules below, give their pIC50 values.
1. Cc1cc([C@@H](C)Nc2ccc(Cl)nc2C(=O)NS(C)(=O)=O)c2nc(N3Cc4cccc(-c5ccnn5C)c4C3)n(C)c(=O)c2c1
2. Cc1cc([C@@H](C)Nc2ccc(Cl)nc2C(=O)NS(C)(=O)=O)c2nc(N3CCC4(CCN(c5ccn(C)n5)CC4)CC3)n(C)c(=O)c2c1
3. Cc1cc([C@@H](C)Nc2ccc(Cl)nc2C(=O)NS(C)(=O)=O)c2nc(N3[C@@H]4CC[C@H]3C[C@@H](c3cnc(C)nc3)C4)n(C)c(=O)c2c1
4. Cc1cc([C@@H](C)Nc2ccc(Cl)nc2C(=O)NS(C)(=O)=O)c2nc(N3Cc4cnn(C(C)C)c4C3)n(C)c(=O)c2c1
5. Cc1cc([C@@H](C)Nc2ccc(Cl)nc2C(=O)NS(C)(=O)=O)c2nc(N3C[C@H](C)O[C@@H](C)C3)n(C)c(=O)c2c1
6. Cc1cc([C@@H](C)Nc2ccc(Cl)nc2C(=O)NS(C)(=O)=O)c2nc(N3Cc4cn(CC(F)(F)F)nc4C3)n(C)c(=O)c2c1
7. Cc1cc([C@@H](C)Nc2ccc(Cl)nc2C(=O)NS(C)(=O)=O)c2nc(N3Cc4cn(-c5ccc(C#N)cc5C)nc4C3)n(C)c(=O)c2c1

1. 5.30 to 6.00
2. ≤ 5.30
3. 5.30 to 6.00
4. 5.30 to 6.00
5. 5.30 to 6.00
6. 5.30 to 6.00
7. 5.30 to 6.00

###

Please respond with reported pIC50 for every item in the list.
# Tested on: SKBR3 (PI3Kα-Wild Type) cell line
# Assay Procedure: HTRF phospho-AKT(S473) cell assay in SKBR3 cells
# Type: cell-based, human
# Conditions: Homo sapiens, SK-BR-3; HTRF phospho-AKT(S473), SKBR3 (PI3Kα-Wild Type) cells, 2 hours compound incubation, PDGF-BB stimulated
pIC50: −log10 of the molar value.

Reference set, count: 5
>>> endpoint_result("Cc1cc([C@@H](C)Nc2ccc(Cl)nc2C(=O)NS(C)(=O)=O)c2nc(N3CC[C@@H](Nc4ncccn4)C3)n(C)c(=O)c2c1 [Compound 541]")
"≤ 5.30"
>>> endpoint_result("Cc1cc([C@@H](C)Nc2ccc(Cl)nc2C(=O)NS(C)(=O)=O)c2nc(N3CCC(c4ncc(C)o4)CC3)n(C)c(=O)c2c1 [Compound 728]")
"5.30 to 6.00"
>>> endpoint_result("Cc1cc([C@@H](C)Nc2ccc(Cl)nc2C(=O)NS(C)(=O)=O)c2nc(N3CCC(c4nn(C)c5ccccc45)CC3)n(C)c(=O)c2c1 [Compound 675]")
"≤ 5.30"
>>> endpoint_result("CCn1c(N2C[C@@H]3[C@H](C2)[C@H]3c2cnc(C)nc2)nc2c([C@@H](C)Nc3ccc(Cl)nc3C(=O)NS(C)(=O)=O)cc(C)cc2c1=O [Compound 584]")
"5.30 to 6.00"
>>> endpoint_result("Cc1cc([C@@H](C)Nc2ccc(Cl)nc2C(=O)NS(C)(=O)=O)c2nc(N3C[C@H]4C[C@@H]3CN4c3ncc(F)cn3)n(C)c(=O)c2c1 [Compound 668]")
"≤ 5.30"

Need pIC50, item Cc1cc([C@@H](C)Nc2ccc(Cl)nc2C(=O)NS(C)(=O)=O)c2nc(N3CCC(n4cc(C)nn4)CC3)n(C)c(=O)c2c1 [Compound 716]
5.30 to 6.00

###

# Test system: SKBR3 (PI3Kα-Wild Type) cell line
# Assay Procedure: HTRF phospho-AKT(S473) cell assay in SKBR3 cells
# Type: cell-based, human
# Conditions: Homo sapiens, SK-BR-3; SKBR3 (PI3Kα-Wild Type) cells, HTRF phospho-AKT(S473), 2 hours compound incubation, PDGF-BB stimulated
Provide the recorded IC50 for the entries that follow.

>>> endpoint_result("Cc1cc([C@@H](C)Nc2ccc(Cl)nc2C(=O)NS(C)(=O)=O)c2nc(N3Cc4cnn(C)c4C3)n(C)c(=O)c2c1")
"1 to 5 µM"
>>> endpoint_result("CC(=O)NS(=O)(=O)c1nc(Cl)ccc1N[C@H](C)c1cc(C)cc2c(=O)n(C)c(N3Cc4ccc(F)cc4C3)nc12")
"≥ 5 µM"
>>> endpoint_result("Cc1cc([C@@H](C)Nc2ccc(Cl)nc2C(=O)NS(C)(=O)=O)c2nc(N3CCC4(CCN(c5ccn(C)n5)C4)CC3)n(C)c(=O)c2c1")
"≥ 5 µM"
>>> endpoint_result("Cc1cc([C@@H](C)Nc2ccc(Cl)nc2C(=O)NS(C)(=O)=O)c2nc(N3CCC(c4cc(C)n(C)n4)CC3)n(C)c(=O)c2c1")
"1 to 5 µM"
>>> endpoint_result("Cc1cc([C@@H](C)Nc2ccc(Cl)nc2C(=O)NS(C)(=O)=O)c2nc(N3CC[C@H](Oc4cc[nH]n4)C3)n(C)c(=O)c2c1")
"1 to 5 µM"

Consider the record given below.
Notebook: pull reported IC50 for SKBR3 (PI3Kα-Wild Type) cell line, entry Cc1cc([C@@H](C)Nc2ccc(Cl)nc2C(=O)NS(C)(=O)=O)c2nc(N3CCC(c4ccc(C)nn4)CC3)n(C)c(=O)c2c1
1 to 5 µM
